These measurements were taken from PubChem BioAssay (NCATS).

Assay: qHTS for identification of novel therapeutic agents for treatment of microphthalmiaassociated transcription factor (MiT) renal cell carcinoma (RCC) (AID 1963991);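 note: curves scaled with 100% = DMSO viability and 0% = empty wells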
Details: TFE3-RCC viability, CellTiter-Glo, 48 h; measured here: UOK124 Z-AUC; stronger effect = lower value
Inconclusive results are not listed.
Attribute Measured: z-score

As a guide, the following entries are already answered.
| Compound | z-score |
| --- | --- |
| Cc1c(-c2ccc(O)cc2)n(Cc2ccc(OCCN3CCCCCC3)cc2)c2ccc(O)cc12 | 0.408 |
| CC[C@H](NC(C)C)[C@H](O)c1ccc(O)c2[nH]c(=O)ccc12 | 0.735 |
| Nc1nc(F)nc2c1ncn2[C@@H]1O[C@H](CO)[C@@H](O)[C@@H]1O | -1.3 |
| N[C@@H](Cc1ccc(O)c(O)c1)C(=O)O | 0.453 |
| O=S(=O)(O)CCS | 1.05 |

For the compound shown here, "CC1=NN(c2ccccc2)C(=O)C1" , give the reported z-score.
0.556

Please look up its z-score: CC1CC2C3CCC4=CC(=O)C=C[C@]4(C)[C@@]3(F)[C@@H](O)C[C@]2(C)[C@@]1(O)C(=O)CO (stereo partly drawn)
0.693

Would you kindly share the measured z-score for "O=C(O)CCn1c2c(c3ccccc31)C[C@H](NS(=O)(=O)c1ccc(F)cc1)CC2" ?
0.798

Consider the compound "Cc1onc(-c2ccccc2Cl)c1C(=O)N[C@@H]1C(=O)N2[C@@H]1SC(C)(C)[C@@H]2C(=O)O" and give its measured z-score.
0.834

Entry "CCn1cc(C(=O)O)c(=O)c2cc(F)c(N3CCNCC3)cc21" : reported z-score = ?
2.59

Dear colleague, I am looking for the recorded z-score of the following compound: CCOCC(O)COc1ccc(NC(=O)CC[S+](C)C)cc1 (stereo not drawn)
0.296

* * *

Assay: qHTS assay for small molecule antagonists of peroxisome proliferator-activated receptor delta signaling (AID 588535);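 note: cells co-treated with a PPAR-delta agonist as stimulator during compound exposure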
Details: HEK293T PPARd-UAS-bla, beta-lactamase FRET ratio, 18 h; 460 nm channel
Results filed as inconclusive are left out.
Recorded max response by entry
Return type: number; implicit unit %.

| Entry Smiles | Unit Info | max response |
| --- | --- | --- |
| S=P(N1CC1)(N1CC1)N1CC1 | % | 6.13 |
| CC1=NN(c2ccccc2)C(=O)C1 | % | -24.3 |
| Cc1ncc([N+](=O)[O-])n1CCO | % | -0.982 |
| N=C(N)c1ccc(OCCCCCOc2ccc(C(=N)N)cc2)cc1 | % | -25.7 |
| CC(=O)Oc1ccccc1C(=O)Nc1ncc([N+](=O)[O-])s1 | % | -31.7 |

// returns reported max response for input "Cc1ccnc2c1NC(=O)c1cccnc1N2C1CC1"
14.9

* * *

Test system: DIV30
Assay: qHTS profiling for inhibitors of Plasmodium falciparum proliferation (AID 504749); note: nearly all actives have a fitted effect of over 60% in size
Conditions: P. falciparum in erythrocytes, SYBR Green DNA, 72 h; series mostly up to 28.7 µM
Results filed as inconclusive are left out. Activity calls are given as the source filed them. Calls follow the shape of the dose curve; as a rule, active = well fitted inhibition curve with a large enough effect; inconclusive = small, poorly fitted or top-dose-only effect; inactive = flat fitted curve, though single readings scatter.
Attribute Measured: outcome

| Entry Smiles | Attribute Measured | Meas Value |
| --- | --- | --- |
| CCOC(=O)c1ccc(C#Cc2ccc3c(c2)C(C)(C)CCS3)nc1 | outcome | inactive |
| COC(=O)Nc1nc2ccc(C(=O)c3ccccc3)cc2[nH]1 | outcome | inactive |
| Cc1cccc(Nc2ccncc2S(=O)(=O)NC(=O)NC(C)C)c1 | outcome | inactive |
| Cc1cccc(N(C)C(=S)Oc2ccc3ccccc3c2)c1 | outcome | inactive |
| O=c1cc(O)c(Cl)c[nH]1 | outcome | inactive |

Find the recorded outcome belonging to "Nc1ccc(S(=O)(=O)Nc2ccccn2)cc1" and report it.
inactive

* * *

Tested on: CP260
Assay: qHTS profiling for inhibitors of Plasmodium falciparum proliferation (AID 504749); note: nearly all actives have a fitted effect of over 60% in size
Conditions: P. falciparum in erythrocytes, SYBR Green DNA, 72 h; series mostly up to 28.7 µM
Inconclusive results are not listed. The source made the active and inactive calls. Calls follow the shape of the dose curve; as a rule, active = well fitted inhibition curve with a large enough effect; inconclusive = small, poorly fitted or top-dose-only effect; inactive = flat fitted curve, though single readings scatter.
Select the matching outcome among 1.0 = active, 0.0 = inactive

| Entry Smiles | Category |
| --- | --- |
| O=c1oc2c(O)c(O)cc3c(=O)oc4c(O)c(O)cc1c4c23 | 1.0 |
| COc1cc(NCc2ccc3nc(N)nc(N)c3c2C)cc(OC)c1OC | 1.0 |
| CCCc1cc(C(N)=S)ccn1 | 0.0 |

Hi team, can someone confirm the assay call for "COc1ccc2cc3[n+](cc2c1OC)CCc1cc2c(cc1-3)OCO2" ?
1.0

I would be grateful if you could indicate the recorded call for "CCc1c2c(nc3ccc(OC(=O)N4CCC(N5CCCCC5)CC4)cc13)-c1cc3c(c(=O)n1C2)COC(=O)[C@]3(O)CC" .
0.0

Short answer needed: outcome of this test for "CN(C)c1ccc(C(=C2C=CC(=[N+](C)C)C=C2)c2ccc(N(C)C)cc2)cc1" ?
1.0

Dear colleague, could you share the recorded outcome for "O=P(O)(O)C(O)(Cc1cccnc1)P(=O)(O)O" when you have a moment?
0.0

Given "CNCC[C@H](Oc1cccc2ccccc12)c1cccs1" , state the outcome it received in this test.
1.0

Could you please tell me the result logged for "OC(Cn1cncn1)(Cn1cncn1)c1ccc(F)cc1F" in this assay?
0.0

* * *

Tested on: HB3
Experiment: qHTS profiling for inhibitors of Plasmodium falciparum proliferation (AID 504749); note: nearly all actives have a fitted effect of over 60% in size
Conditions: P. falciparum in erythrocytes, SYBR Green DNA, 72 h; series mostly up to 28.7 µM
Results filed as inconclusive are left out. Calls of active or inactive are those of the source. Calls follow the shape of the dose curve; as a rule, active = well fitted inhibition curve with a large enough effect; inconclusive = small, poorly fitted or top-dose-only effect; inactive = flat fitted curve, though single readings scatter.

| Molecule | Target Of Assay | outcome |
| --- | --- | --- |
| CC(C)OC(=O)C(C(=O)OC(C)C)=C1SC=CS1 | HB3 | inactive |
| CNC1CCCN(c2c(F)cc3c(=O)c(C(=O)O)cn(C4CC4)c3c2OC)C1 (stereo not drawn) | HB3 | inactive |
| Cc1cccc(N(C)C(=S)Oc2ccc3ccccc3c2)c1 | HB3 | inactive |

* * *

Test: qHTS Assay for Identification of Small Molecule Antagonists for NFkB Signaling Pathway (AID 895); note: potency is the fitted concentration of half-maximal effect
Settings: NFkB beta-lactamase reporter cells, FRET ratio 460/530, stimulated with 10 pM TNF alpha; series mostly up to 38.3 µM
Results filed as inconclusive are left out. Calls of active or inactive are those of the source. Calls follow the shape of the dose curve; as a rule, active = well fitted inhibition curve with a large enough effect in the signal ratio, with a control signal flat (not every such curve was filed as active); inconclusive = small, poorly fitted or top-dose-only effect, or effect the other way, or a change in a side signal; inactive = flat fitted curve, though single readings scatter; the % refers to the signal ratio.
Attribute Measured: Potency

| Entry Smiles | Attribute Measured | Meas Value |
| --- | --- | --- |
| N[C@@H](Cc1ccc(O)c(O)c1)C(=O)O | Potency | inactive |
| NC(=O)c1cccc(N)c1 | Potency | inactive |
| OCc1ccc(-c2nn(Cc3ccccc3)c3ccccc23)o1 | Potency | 8.91 µM (active) |
| COc1cc2ncnc(Nc3cccc(Cl)c3)c2cc1OC | Potency | 15.8 µM (active) |

* * *

Assay: qHTS drug screen for cell cycle checkpoint inhibitors in PARPi-resistant BRCA-mutant ovarian cancer cell lines. (AID 1963452)
Conditions: PEO1/OlaR viability, CellTiter-Glo luminescence, 96 h; measured here: PEO1 parental Z-AUC; stronger effect = lower value
Attribute Measured: Z-AUC
Please respond with just the number, no unit label.

Which Z-AUC value is on record for "CC(C)(C)NC(=O)[C@H]1CC[C@H]2[C@@H]3CC[C@H]4NC(=O)C=C[C@]4(C)[C@H]3CC[C@]12C" ?
1.04

Record request: Z-AUC value, item "COc1cc(NCc2ccc3nc(N)nc(N)c3c2C)cc(OC)c1OC"
0.153

Quick check: Z-AUC of "CC[C@H](C)C(=O)O[C@H]1C[C@@H](C)C=C2C=C[C@H](C)[C@H](CC[C@@H]3C[C@@H](O)CC(=O)O3)[C@H]21" ?
1.47

What value of Z-AUC has been recorded for this entry: "CC(C)Cn1cnc2c(N)nc3ccccc3c21"
-0.536

Any idea what its Z-AUC is? The molecule is "C[C@@H](NCCCc1cccc(C(F)(F)F)c1)c1cccc2ccccc12"
0.263

Could you tell me which Z-AUC is on file for "CC1=NN(c2ccccc2)C(=O)C1" ?
0.838

Looking for the measured Z-AUC of "CCOC(=O)c1ccc(C#Cc2ccc3c(c2)C(C)(C)CCS3)nc1" , can you help?
1.62

Request the reported Z-AUC associated with "C#CCN[C@@H]1CCc2ccccc21"
-0.355

Reported Z-AUC for "C[C@@H]1CN(c2c(F)c(N)c3c(=O)c(C(=O)O)cn(C4CC4)c3c2F)C[C@H](C)N1" : what is it?
1.39

For "Cc1c(-c2ccc(O)cc2)n(Cc2ccc(OCCN3CCCCCC3)cc2)c2ccc(O)cc12" , what is its reported Z-AUC?
0.798

Looking for the measured Z-AUC of "COc1cc2c(Nc3ccc(Br)cc3F)ncnc2cc1OCC1CCN(C)CC1" , can you help?
0.081

* * *

Assay: qHTS of pediatric cancer cell lines to identify multiple opportunities for drug repurposing: Confirmatory screen for LAN-5 cells (AID 1347113); note: nearly all actives have a fitted effect of over 65% in size
Settings: LAN-5 neuroblastoma cell viability; series mostly up to 45.9 µM
Inconclusive results are not listed. The source made the active and inactive calls. Calls follow the shape of the dose curve; as a rule, active = well fitted cell-killing curve with a large enough effect; inconclusive = small, poorly fitted or top-dose-only effect, or effect the other way; inactive = no such curve, though single readings can be large or run the other way.
The categories you may choose from are active, inactive

Look up the recorded call for "COc1cc(NCc2ccc3nc(N)nc(N)c3c2C)cc(OC)c1OC" in this test.
active

Recorded test outcome, item "CN(C)c1ccc(C(=C2C=CC(=[N+](C)C)C=C2)c2ccc(N(C)C)cc2)cc1"
active

Hey, what did the test say about "C[C@@H](CN1CC(=O)NC(=O)C1)N1CC(=O)NC(=O)C1" ?
inactive

For "CCCCOc1ccc(CC(=O)NO)cc1" , what call appears in the results of this test?
inactive

Hi, sorry to bother you, what did the test record for "CNS(=O)(=O)CCc1ccc2[nH]cc(C3CCN(C)CC3)c2c1" ?
inactive

So what was the verdict on "COc1cc([C@@H]2c3cc4c(cc3[C@H](O)[C@H]3COC(=O)[C@H]23)OCO4)cc(OC)c1OC" in this test?
active

Look up the recorded call for "CO[C@@]12[C@H](COC(N)=O)C3=C(C(=O)C(C)=C(N)C3=O)N1C[C@@H]1N[C@@H]12" in this test.
active
